test system: Enterobacter cloacae; assay: Antibacterial activity against drug-resistant Enterobacter cloacae EcDC64 isolate expressing AcrAB-TolC efflux pump by Etest; assay type: functional
ASSAY_ENDPOINT: MIC

CC(C)(O/N=C(\C(=O)N[C@@H]1C(=O)N2C(C(=O)[O-])=C(C[n+]3ccccc3)CS[C@H]12)c1csc(N)n1)C(=O)O ... > 256 µg/mL
CO[C@@]1(NC(=O)Cc2cccs2)C(=O)N2C(C(=O)O)=C(COC(N)=O)CS[C@@H]21 ... > 256 µg/mL
CN(C)c1cc(NC(=O)CNC(C)(C)C)c(O)c2c1C[C@H]1C[C@H]3[C@H](N(C)C)C(O)=C(C(N)=O)C(=O)[C@@]3(O)C(O)=C1C2=O ... 0.75 µg/mL

For the 2 compounds below, give their MIC values.
1. CCN1CCN(C(=O)N[C@@H](C(=O)N[C@@H]2C(=O)N3[C@@H]2SC(C)(C)[C@@H]3C(=O)O)c2ccccc2)C(=O)C1=O
2. C[C@@H](O)[C@H]1C(=O)N2C(C(=O)O)=C(SCCNC=N)C[C@H]12 [IMIPENEM ANHYDROUS]

### Response
1: > 256 µg/mL; 2: > 32 µg/mL
